tested_system: GST tagged LXRalpha LBD (ligand binding domain) (Homo sapiens)
Sequence (Q13133 209-447 limits assumed): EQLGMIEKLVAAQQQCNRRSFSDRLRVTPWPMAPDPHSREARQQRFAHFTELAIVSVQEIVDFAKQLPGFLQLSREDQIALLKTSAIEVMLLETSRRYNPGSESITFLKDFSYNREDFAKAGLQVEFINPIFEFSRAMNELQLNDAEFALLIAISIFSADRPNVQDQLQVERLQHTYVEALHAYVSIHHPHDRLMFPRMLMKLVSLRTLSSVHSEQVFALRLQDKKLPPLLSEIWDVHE
test_protocol: LanthaScreen TR-FRET Liver X Receptor Coactivator Assay, LXR alpha-LBD
measurement_conditions: Inflection Point (potency), co-activator recruitment, relative to reference T0901317; read-out: LXR alpha IP
Hi! Could you tag entries with EC50 below 2000 nM as Fulfilled, and those at or above as Not fulfilled? Much appreciated.

- compound: "CN(C)C(=O)c1ccc(N2CCC(C3CCN(C(=O)C4(c5ccccc5F)CC4)CC3)CC2)cc1Cl [Example A-71]"
  class_assignment: "Fulfilled"
- compound: "CC(C)(C(=O)N1CCC(C2CCN(c3ccc(C(=O)N4CCCC4)c(Cl)c3)CC2)CC1)c1ccccc1 [Example E-18]"
  class_assignment: "Fulfilled"
- compound: "CN(C)C(=O)c1ccc(N2CCC(C3CCN(C(=O)C4(c5ccccc5F)CCC4)CC3)CC2)cc1Cl [Example A-73]"
  class_assignment: "Fulfilled"
- compound: "CN(C)C(=O)c1ccc(N2CCC(C3CCN(C(=O)c4ccccc4Cl)CC3)CC2)cc1Cl [Example A-22]"
  class_assignment: "Fulfilled"
- compound: "CCC(F)(C(=O)N1CCC(C2CCN(c3ccc(C(=O)N(C)C)c(Cl)c3)CC2)CC1)c1ccccc1 (centres unmarked) [Example A-61]"
  class_assignment: "Fulfilled"
- compound: "CN(C)C(=O)c1ccc(N2CCC(C3CCN(C(=O)C4(c5ccccc5)CCC4)CC3)CC2)cc1Cl [Example A-14]"
  class_assignment: "Fulfilled"
- compound: "CN(C)C(=O)c1ccc(N2CCC(C3CCN(c4ccccc4C(F)(F)F)CC3)CC2)cc1Cl [Example A106]"
  class_assignment: "Not fulfilled"
- compound: "COCCCN(C)C(=O)c1ccc(N2CCC(C3CCN(C(=O)[C@](O)(c4ccccc4)C(F)(F)F)CC3)CC2)cc1Cl [Example E-48]"
  class_assignment: "Fulfilled"
- compound: "COc1cccc([C@](O)(C(=O)N2CCC(C3CCN(c4ccc(C(=O)N(C)C)c(Cl)c4)CC3)CC2)C(F)(F)F)c1 (single isomer, unassigned) [Example A-66]"
  class_assignment: "Not fulfilled"
- compound: "CC(=O)Oc1ccc(C(C)(C)C(=O)N2CCC(C3CCN(c4ccc(C(=O)N(C)C)c(Cl)c4)CC3)CC2)cc1 [Example A-59]"
  class_assignment: "Not fulfilled"
- compound: "CC(C)C(O)(C(=O)N1CCC(C2CCN(c3ccc(C(=O)N4CCCC4)c(Cl)c3)CC2)CC1)C(F)(F)F (centres unmarked) [Example E-7]"
  class_assignment: "Fulfilled"
- compound: "CN(Cc1nccs1)C(=O)c1ccc(N2CCC(C3CCN(C(=O)[C@](O)(c4ccccc4)C(F)(F)F)CC3)CC2)cc1Cl [Example E-49]"
  class_assignment: "Fulfilled"
- compound: "O=C(c1ccc(N2CCC(C3CCN(C(=O)[C@](O)(c4ccccc4)C(F)(F)F)CC3)CC2)cc1Cl)N(CCF)CCF [Example E-67]"
  class_assignment: "Not fulfilled"
- compound: "CN(C)C(=O)c1ccc(N2CCC(C3CCN(C(=O)C(O)(c4ccccc4)C4CC4)CC3)CC2)cc1Cl (centres unmarked) [Example A-52]"
  class_assignment: "Not fulfilled"

----------
tested_system: GST tagged LXRbeta LBD (ligand binding domain) (Homo sapiens)
Construct: purchased Invitrogen pv4658.pps
Sequence (P55055 222-460 limits assumed): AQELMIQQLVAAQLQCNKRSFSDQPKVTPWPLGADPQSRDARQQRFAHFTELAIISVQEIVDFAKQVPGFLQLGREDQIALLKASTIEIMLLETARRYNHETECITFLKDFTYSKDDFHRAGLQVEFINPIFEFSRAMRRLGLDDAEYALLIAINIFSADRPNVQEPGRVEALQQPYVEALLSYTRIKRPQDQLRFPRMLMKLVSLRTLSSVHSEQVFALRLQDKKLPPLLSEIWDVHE
test_protocol: LanthaScreen TR-FRET Liver X Receptor Coactivator Assay, LXR beta-LBD
Type: biochemical
measurement_conditions: activity at max dose (efficacy), relative to reference T0901317
LXR beta act @ max dose (%) by entry:

- compound: "CC(C)CC(O)(C(=O)N1CCC(C2CCN(c3ccc(C(=O)N(C)C)c(Cl)c3)CC2)CC1)C(F)(F)F (centres unmarked) [Example A-5]"
  unit_text: "%"
  LXR beta act @ max dose (%): 113
- compound: "CN(C)C(=O)c1ccc(N2CCC(C3CCN(C(=O)C(O)(C4CC4)C(F)(F)F)CC3)CC2)cc1Cl (single isomer, unassigned) [Example A-9]"
  unit_text: "%"
  LXR beta act @ max dose (%): 110
- compound: "CN(C)C(=O)c1ccc(N2CCC(C3CCN(C(=O)C(O)(C(C)(C)C)C(F)(F)F)CC3)CC2)cc1Cl (single isomer, unassigned) [Example A-7]"
  unit_text: "%"
  LXR beta act @ max dose (%): 93
- compound: "CN(C)C(=O)c1ccc(N2CCC(C3CCN(C(=O)C(O)(c4ccccc4)C(F)(F)C(F)(F)C(F)(F)F)CC3)CC2)cc1Cl (centres unmarked) [Example A-55]"
  unit_text: "%"
  LXR beta act @ max dose (%): 93
- compound: "CC(C)CC(O)(C(=O)N1CCC(C2CCN(c3ccc(C(=O)N(C)C)c(Cl)c3)CC2)CC1)C(F)(F)F (centres unmarked) [Example A-90]"
  unit_text: "%"
  LXR beta act @ max dose (%): 70
- compound: "CC(C)CC(O)(C(=O)N1CCC(C2CCN(c3ccc(C(=O)N(C)C)c(Cl)c3)CC2)CC1)C(F)(F)F (centres unmarked) [Example A-89]"
  unit_text: "%"
  LXR beta act @ max dose (%): 94
- compound: "CCCC(O)(C(=O)N1CCC(C2CCN(c3ccc(C(=O)N(C)C)c(Cl)c3)CC2)CC1)C(F)(F)F (centres unmarked) [Example A-84]"
  unit_text: "%"
  LXR beta act @ max dose (%): 116
- compound: "COc1cccc(C(O)(C(=O)N2CCC(C3CCN(c4ccc(C(=O)N(C)C)c(Cl)c4)CC3)CC2)C(F)(F)C(F)(F)F)c1 (centres unmarked) [Example A-85]"
  unit_text: "%"
  LXR beta act @ max dose (%): 115

----------
tested_system: GST tagged LXRalpha LBD (ligand binding domain) (Homo sapiens)
Construct: purchased Invitrogen pv4655
test_protocol: LanthaScreen TR-FRET Liver X Receptor Coactivator Assay, LXR alpha-LBD
Type: biochemical
measurement_conditions: activity at max dose (efficacy), relative to reference T0901317; read-out: LXR alpha act @ max dose (%)
Classify as follows. Reported Emax greater than or equal to 40%: 1. Reported Emax below: -1.

- molecule: "CN(C)C(=O)c1ccc(N2CCC(C3CCN(C(=O)C(O)(c4cccc(Cl)c4)C(F)(F)F)CC3)CC2)cc1Cl (stereo not shown)"
  class_assignment: -1
- molecule: "O=C(c1ccc(N2CCC(C3CCN(C(=O)[C@](O)(c4ccccc4)C(F)(F)F)CC3)CC2)cc1Cl)N1CCC[C@H]1CO"
  class_assignment: 1
- molecule: "COC(=O)c1ccc(N2CCC(C3CCN(C(=O)OC(C)(C)C)CC3)CC2)nc1Cl"
  class_assignment: -1
- molecule: "CN(C)C(=O)c1ccc(N2CCC(C3CCN(C(=O)C4(c5ccccc5F)CC4)CC3)CC2)cc1Cl"
  class_assignment: 1
- molecule: "CN(C)C(=O)c1ccc(N2CCC(C3CCN(C(=O)C4(c5ccccc5)CC4)CC3)CC2)cc1Cl"
  class_assignment: -1
- molecule: "CN(C)C(=O)c1ccc(N2CCC(C3CCN(S(=O)(=O)c4ccccc4C(F)(F)F)CC3)CC2)cc1Cl"
  class_assignment: 1
- molecule: "CN(C)C(=O)c1ccc(N2CCC(C3CCN(C(=O)c4ccccc4C(F)(F)F)CC3)CC2)cc1Cl"
  class_assignment: -1
- molecule: "CN(C)C(=O)c1ccc(N2CCC(C3CCN(C(=O)C(C)(C)C(F)(F)F)CC3)CC2)cc1Cl"
  class_assignment: 1
- molecule: "Cc1nc(N2CCC(C3CCN(C(=O)C(O)(C(C)C)C(F)(F)F)CC3)CC2)ccc1C(=O)N(C)C (stereo not shown)"
  class_assignment: -1
- molecule: "CN(C)C(=O)c1ccc(N2CCC(C3CCN(C(=O)C4(c5ccc(F)cc5)CCC4)CC3)CC2)cc1Cl"
  class_assignment: -1
- molecule: "Cc1ccc(F)c(C(=O)N2CCC(C3CCN(c4ccc(C(=O)N(C)C)c(Cl)c4)CC3)CC2)c1F"
  class_assignment: -1
- molecule: "CC(=O)Oc1ccc(C(C)(C)C(=O)N2CCC(C3CCN(c4ccc(C(=O)N(C)C)c(Cl)c4)CC3)CC2)cc1"
  class_assignment: 1
- molecule: "CN(C)C(=O)c1ccc(N2CCC(C3CCN(C(=O)C(F)(F)c4ccccc4)CC3)CC2)cc1Cl"
  class_assignment: 1
- molecule: "COC(=O)[C@@H]1CCCN1C(=O)c1ccc(N2CCC(C3CCN(C(=O)[C@](O)(c4ccccc4)C(F)(F)F)CC3)CC2)cc1Cl"
  class_assignment: -1
- molecule: "COc1ccccc1C1(C(=O)N2CCC(C3CCN(c4ccc(C(=O)N(C)C)c(Cl)c4)CC3)CC2)CCC1"
  class_assignment: 1
- molecule: "CN(C)C(=O)c1ccc(N2CCC(C3CCN(C(=O)C(O)(CCc4ccccc4)C(F)(F)F)CC3)CC2)cc1Cl (stereo not shown)"
  class_assignment: -1
- molecule: "O=C(c1ccc(N2CCC(C3CCN(C(=O)[C@](O)(c4ccccc4)C(F)(F)F)CC3)CC2)cc1Cl)N1CC(F)(F)C1"
  class_assignment: -1
- molecule: "CC1(C)CCN(C(=O)c2ccc(N3CCC(C4CCN(C(=O)[C@](O)(c5ccccc5)C(F)(F)F)CC4)CC3)cc2Cl)C1"
  class_assignment: -1
- molecule: "CN(C)C(=O)c1ccc(N2CCC(C3CCN(C(=O)C4(c5ccc(Cl)c(Cl)c5)CCC4)CC3)CC2)cc1Cl"
  class_assignment: -1
